Target: RNase P isolated from D. discoideum
Assay: RNase P inhibition assay, enzyme from D. discoideum
Conditions: negative intercept of slope replots, 37° C., buffer D, 10% DMSO
Procedure: Inhibitory Activity on RNAse P. We have developed a method by which we can estimate rapidly the biological activity of the polyamine-retinoid conjugates. This method is based on the effect of the polyamine-retinoid conjugates on RNase P activity and is described in detail under the EXAMPLE 7. […] In order to carry out such analysis, the initial velocity in the presence or absence of the conjugate was determined from the initial slopes of time plots. […]
pKi: −log10 of the molar value.
Give true when the value for pKi is at least 5. Give false when it is less.

- CC(C=CC1=C(C)CCCC1(C)C)=CC=CC(C)=CC(=O)NCCCNCCCCNCCCN: true
- CC(C=CC1=C(C)CCCC1(C)C)=CC=CC(C)=CC(=O)N(CCCN)CCCCN(CCCN)C(=O)C=C(C)C=CC=C(C)C=CC1=C(C)CCCC1(C)C [3DIIIa, N^4,N^9-Bis(All-Trans-Retinoyl)Spermine]: true
- CC1=C(/C=C/C(C)=C/C=C/C(C)=C\C(=O)O)C(C)(C)CCC1 [Isotretinoin, 13-cis-retinoic acid]: false
- CC1=C(/C=C/C(C)=C/C=C/C(C)=C/C(=O)O)C(C)(C)CCC1 [all-trans-Retinoic acid (RA), all-trans-retinoic acid]: false
- CC1=C(/C=C/C(C)=C/C=C/C(C)=C/CO)C(C)(C)CCC1: false

----------
Recorded pKi for the following compounds
Biological target: RNase P from Dictyostelium discoideum
Test: RNase P inhibition (pre-tRNA(Ser) cleavage, double reciprocal plots and slope replots)
Conditions: D. discoideum RNase P; 37° C., buffer D, 10% DMSO; from negative intercept of the slope replots
pKi: −log10 of the molar value. Counter-ions that a name gives are not always drawn.
Observation Type: pKi

- CC1=C(/C=C/C(C)=C/C=C/C(C)=C/C(=O)NCCCNCCCCNCCCNC(=O)/C=C(C)/C=C/C=C(C)/C=C/C2=C(C)CCCC2(C)C)C(C)(C)CCC1: 6.30
- CCS(=O)(=O)c1ccc(/C=C(\C)c2ccc3c(c2)C(C)(C)CCC3(C)C)cc1: 2.44
- COc1cc(C)c(/C=C/C(C)=C/C=C/C(C)=C/C(=O)NCCCNCCCCNCCCNC(=O)/C=C(C)/C=C/C=C(C)/C=C/c2c(C)cc(OC)c(C)c2C)c(C)c1C [N^1,N^12-Aci2-Spermine (3DIb). 2 HCl, N^1,N^12-Aci2-Spermine]: 6.02

Taken from patent US7517913B2.
